Target: Neu5Ac(a2-3)Gal(b1-3)GalNAc6S
Assay: glycan array binding signal (z-score within array); higher = stronger binding
Details: glycan notation: IUPAC condensed, linker removed
The full list was thinned out, with the strongest signals kept by preference.
Would you mind telling me the reported glycan array binding signal (z-score) of each entry?
Give bare numbers.

XCL (Xerocomus chrysenteron) (protein) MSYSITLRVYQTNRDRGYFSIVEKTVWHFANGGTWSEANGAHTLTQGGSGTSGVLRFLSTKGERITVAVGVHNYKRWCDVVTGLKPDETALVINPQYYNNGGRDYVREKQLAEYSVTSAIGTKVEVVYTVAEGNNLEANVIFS has a reported glycan array binding signal (z-score) of 3.87

Summary for this binder, Mcg Light Chain Dimer (Homo sapiens), Q6PIK1 (protein) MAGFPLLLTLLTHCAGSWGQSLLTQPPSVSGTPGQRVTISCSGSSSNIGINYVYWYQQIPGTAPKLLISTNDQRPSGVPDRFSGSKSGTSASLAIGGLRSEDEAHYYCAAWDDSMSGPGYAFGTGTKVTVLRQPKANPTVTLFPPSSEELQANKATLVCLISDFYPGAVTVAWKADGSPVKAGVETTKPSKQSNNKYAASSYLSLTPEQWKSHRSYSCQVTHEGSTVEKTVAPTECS : glycan array binding signal (z-score) is 2.88

Reported glycan array binding signal (z-score) of TAL6-4LysM (Trichoderma atroviride) (protein) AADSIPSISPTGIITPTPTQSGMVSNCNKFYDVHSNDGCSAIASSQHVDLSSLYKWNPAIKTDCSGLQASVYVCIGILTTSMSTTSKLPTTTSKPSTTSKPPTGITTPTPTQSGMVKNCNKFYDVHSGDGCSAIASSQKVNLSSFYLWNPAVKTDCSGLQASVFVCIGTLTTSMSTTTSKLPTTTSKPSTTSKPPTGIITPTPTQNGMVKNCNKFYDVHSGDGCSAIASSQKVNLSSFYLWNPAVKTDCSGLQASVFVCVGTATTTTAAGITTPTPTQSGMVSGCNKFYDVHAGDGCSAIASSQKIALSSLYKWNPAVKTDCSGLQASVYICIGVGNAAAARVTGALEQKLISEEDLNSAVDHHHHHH : 0.743

Looking up RsaA-N-term (Caulobacter crescentus), P35828 (protein) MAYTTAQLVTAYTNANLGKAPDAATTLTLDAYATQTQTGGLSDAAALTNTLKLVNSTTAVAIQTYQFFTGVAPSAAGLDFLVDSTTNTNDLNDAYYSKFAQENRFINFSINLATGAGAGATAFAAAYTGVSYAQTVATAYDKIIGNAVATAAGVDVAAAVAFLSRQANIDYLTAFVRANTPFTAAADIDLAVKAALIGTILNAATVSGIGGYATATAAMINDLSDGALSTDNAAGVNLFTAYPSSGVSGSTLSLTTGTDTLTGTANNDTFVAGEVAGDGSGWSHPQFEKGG , I see its glycan array binding signal (z-score) listed as 0.427

// glycan array binding signal (z-score) lookup, binder = Gal 1 (Canis lupus) (protein) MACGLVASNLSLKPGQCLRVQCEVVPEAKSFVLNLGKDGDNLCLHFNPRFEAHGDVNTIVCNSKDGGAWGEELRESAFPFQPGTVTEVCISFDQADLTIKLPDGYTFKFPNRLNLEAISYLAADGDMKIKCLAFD , result: -0.333

# context switch: different binder, same glycan array binding signal (z-score)
Quick note, glycan array binding signal (z-score) for YASPKCFRYPNGVLACT [Odorranalectin (Odorrana grahami), B3TFE9_RANGR] landed at 0.438
